Each item that follows carries a reported normalized growth.
- TEST_DETAILS: chemical genetic growth profiling, strain panel (AID 1159580);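 also: tested at 20 µM; growth read once vehicle control cultures reached saturation at 30 °C; 1 = growth at the plate median or of vehicle wells; lower values mean less growth of the strain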
- PARTICULARS: S. cerevisiae deletion strains, growth OD, locus YEL061C, strain CIN8, stronger effect = lower value
The campaign covered roughly 5,500 compounds. About 2,000 (36%) were called active. Not shown: some 18% with an inconclusive outcome. This is one part of the list.
METRIC: normalized growth

INSERT INTO measurements (molecule, metric, experimental_value) VALUES
  ('NCCc1cnc[nH]1', 'normalized growth', 0.995),
  ('CN1C2CCC1CC(OC(c1ccccc1)c1ccccc1)C2 (configuration not stated)', 'normalized growth', 0.983),
  ('O=C(O)/C=C/c1ccc(O)c(O)c1', 'normalized growth', 1.01),
  ('CC(=O)O[C@H]1C[C@@H](OC(C)=O)C(C)(C)C2CC(=O)[C@]3(C)C(CC[C@@]4(C)[C@H](C(=O)O)OC(=O)C5OC543)[C@]21C (some centres not stated)', 'normalized growth', 0.979),
  ('CN1C2CCC1CC(OC(c1ccccc1)c1ccccc1N)C2 (configuration not stated)', 'normalized growth', 1),
  ('Oc1cc(O)c2c(c1)O[C@H](c1cc(O)c(O)c(O)c1)[C@H](O)C2', 'normalized growth', 0.999),
  ('Oc1cc(O)c2c(c1)OC(c1cc(O)c(O)c(O)c1)C(O)C2c1c(O)cc(O)c2c1OC(c1cc(O)c(O)c(O)c1)C(O)C2c1c(O)cc(O)c2c1OC(c1cc(O)c(O)c(O)c1)C(O)C2 (configuration not stated)', 'normalized growth', 0.933);

Origin of measurements: PubChem BioAssay AID1159580
